target: human Peroxisome Proliferator-activated Receptor alpha (PPARa), PPARA (gene 5465); assay: ATG_PPARa_TRANS: Attagene TRANS-FACTORIAL HepG2 Assay for human Peroxisome Proliferator-activated Receptor alpha (PPARa) (AID 2283001)
Inconclusive results are not listed. Calls of active or inactive are those of the source. How the source made its calls: active means hit-call score of the fitted dose curve at least 0.9, where 1 is the maximum; inconclusive means response in the unintended direction; inactive means score below 0.9.
One label from this list, please: 1 (active), 0 (inactive)

[
  {
    "compound": "O[Si](c1ccccc1)(c1ccccc1)c1ccccc1",
    "target-or-system": "human Peroxisome Proliferator-activated Receptor alpha (PPARa), PPARA (gene 5465)",
    "answer-label": 0
  },
  {
    "compound": "CCCCCCC(C)OC(=O)CCCCC(=O)OC(C)CCCCCC (stereo not drawn)",
    "target-or-system": "human Peroxisome Proliferator-activated Receptor alpha (PPARa), PPARA (gene 5465)",
    "answer-label": 0
  },
  {
    "compound": "CCCCCC=O",
    "target-or-system": "human Peroxisome Proliferator-activated Receptor alpha (PPARa), PPARA (gene 5465)",
    "answer-label": 0
  },
  {
    "compound": "O=C(O)C(F)(F)C(F)(F)C(F)F",
    "target-or-system": "human Peroxisome Proliferator-activated Receptor alpha (PPARa), PPARA (gene 5465)",
    "answer-label": 0
  },
  {
    "compound": "CC(C)=CCCC(C)CCOC(=O)C(C)C (stereo not drawn)",
    "target-or-system": "human Peroxisome Proliferator-activated Receptor alpha (PPARa), PPARA (gene 5465)",
    "answer-label": 0
  },
  {
    "compound": "CO[Si](OC)(c1ccccc1)c1ccccc1",
    "target-or-system": "human Peroxisome Proliferator-activated Receptor alpha (PPARa), PPARA (gene 5465)",
    "answer-label": 0
  }
]

INPUT: Call for entry "CCCCCCOC(=O)c1ccccc1O" :
OUTPUT: 0

INPUT: Call for entry "Cc1cc(C)cc(O)c1" :
OUTPUT: 0

---

target: Nuclear respiratory factor 1 (Homo sapiens); test: ATG_NRF1_CIS: Attagene CIS-FACTORIAL HepG2 Assay for human Nuclear Respiratory Factor 1 (NRF1) Orphan Gene (AID 2282987); details: HepG2 NRF1 cis-element reporter, Attagene multiplex; actives raise or lower the signal
The source made the active and inactive calls. Rule for the calls: active = hit-call score of the fitted dose curve at least 0.9, where 1 is the maximum; inactive = score below 0.9.
One label from this list, please: T for active, F for inactive

A selection of reference data follows.
[
  {
    "compound": "O[Si](c1ccccc1)(c1ccccc1)c1ccccc1",
    "answer-label": "T"
  },
  {
    "compound": "CCN(Cc1cccc(S(=O)(=O)O)c1)c1ccc(C(=C2C=CC(=[N+](CC)Cc3cccc(S(=O)(=O)O)c3)C=C2)c2ccc(O)cc2S(=O)(=O)[O-])cc1",
    "answer-label": "F"
  },
  {
    "compound": "O=C(O)C(F)(OC(F)(F)C(F)(OC(F)(F)C(F)(OC(F)(F)C(F)(F)C(F)(F)F)C(F)(F)F)C(F)(F)F)C(F)(F)F (stereo not drawn)",
    "answer-label": "F"
  },
  {
    "compound": "O=C(CC(=O)C(F)(F)C(F)(F)F)C(F)(F)F",
    "answer-label": "F"
  },
  {
    "compound": "FC(F)(F)C(F)(F)C(F)(F)C(F)(F)CCI",
    "answer-label": "F"
  },
  {
    "compound": "CCCCCCCOC(=O)c1ccccc1C(=O)OCCCCCCC",
    "answer-label": "F"
  },
  {
    "compound": "FC(F)(F)C(F)(F)C(F)(F)N(C(F)(F)C(F)(F)C(F)(F)F)C(F)(F)C(F)(F)C(F)(F)F",
    "answer-label": "F"
  },
  {
    "compound": "FC(F)(F)C(F)(F)C(F)(F)C(F)(F)C(F)(F)C(F)(F)C(F)(F)Br",
    "answer-label": "F"
  },
  {
    "compound": "O=S(=O)(O)c1ccc2ccccc2c1",
    "answer-label": "F"
  },
  {
    "compound": "CCCCC(CC)COP(=O)(O)OCC(CC)CCCC (stereo not drawn)",
    "answer-label": "F"
  }
]

INPUT: Call for entry "FC(F)(F)C(F)(F)C(F)(F)C(F)(F)C(F)(F)C(F)(F)C(F)(F)I" :
OUTPUT: F

INPUT: Call for entry "O=S(=O)(O)C(F)(F)C(F)(F)C(F)(F)C(F)(F)C(F)(F)C(F)(F)C(F)(F)F" :
OUTPUT: F

INPUT: Call for entry "Nc1ccc(Oc2cccc(Oc3ccc(N)cc3)c2)cc1" :
OUTPUT: T

INPUT: Call for entry "CNC(=S)NC" :
OUTPUT: F

INPUT: Call for entry "O=P(O)(O)OCCC(F)(F)C(F)(F)C(F)(F)C(F)(F)C(F)(F)C(F)(F)F" :
OUTPUT: F

INPUT: Call for entry "CC(C)(C)C(=O)CC(=O)C(F)(F)C(F)(F)C(F)(F)F" :
OUTPUT: F

INPUT: Call for entry "C=CC(=O)OCC(F)(F)C(F)(F)C(F)(F)C(F)(F)COC(=O)C=C" :
OUTPUT: F

INPUT: Call for entry "FC(F)(F)C(F)(F)C(F)(F)CI" :
OUTPUT: F
